The reported measurements were obtained from PubChem BioAssay (NCI).

System: M14 melanoma
Test: NCI-60 one-dose screen, 48 h (100 = growth as untreated, 0 = no growth, -100 = all killed)
Settings: 10 µM
The panel holds about 83,000 compounds, 20% with a hit somewhere; the sample as a whole holds those more often.
Form field: growth (one value per entry).
quantityKind: growth (%)

> print(dat)
                                    compound  quantitykind  readoutvalue
 1  COC(=O)C1=NNC(=S)N(c2cc(C)[nH]n2)C(=O)C1        growth           102
 2                    N=c1nc(N)ncn1-c1ccccc1        growth           106
 3  Fc1ccc2nc(-c3nc(-c4ccccc4)n4ccccc34)[nH]c2c1        growth          27.7
 4                       CC(=O)c1cc(Cl)ccc1O        growth           106
 5  O=C(Nc1ccc(OS(=O)(=O)c2ccccc2)cc1)C12CC3CC(CC(C3)C1)C2        growth          47.2
 6                 NC(=O)CC1(c2ccccc2)CCCCC1        growth            96
 7                       COC(=O)c1ccc(=O)oc1        growth           101
 8  COc1cccc(-c2cc(-c3cccc(NS(C)(=O)=O)c3)nc(N)c2C#N)c1O        growth          41.3
 9  CCc1ccc2c(c1)N(CCO)C1=C(C(=O)OC1)C2c1ccccc1 (configuration not stated)        growth          78.9
10  Cc1ccc(C(=O)Nc2cccc(F)c2)cc1NC(=O)C1(c2ncnc3[nH]ccc23)CC1        growth            60
11   O=C(O)c1ccc(P(=O)(O)O)c([N+](=O)[O-])c1        growth           114
12  CCOC(=O)C1(CC(C)C)CCOC1=O (configuration not stated)        growth           106
